Measured pKi, listed per entry.
# SYSTEM_TESTED: UniProtKB P00374
# EXPERIMENT_NOTES: Inhibitory activity against Leu22-Phe mutant human Dihydrofolate reductase
# pKi is unitless: minus log10 of the molar concentration; print number only

Reference set, count: 5
- COMPOUND: "Nc1nc(N)c2c(/C=C/c3ccccc3)cccc2n1"
  pKi: 8.74
- COMPOUND: "COc1ccc(OC)c(NCc2cccc3nc(N)nc(N)c23)c1"
  pKi: 7.48
- COMPOUND: "COc1cc(CCc2cccc3nc(N)nc(N)c23)cc(OC)c1OC"
  pKi: 8.37
- COMPOUND: "COc1ccc(OC)c(C#Cc2cccc3nc(N)nc(N)c23)c1"
  pKi: 6.85
- COMPOUND: "Nc1nc(N)c2c(CNc3ccc(C(=O)NC(CCC(=O)O)C(=O)O)cc3)cccc2n1 (stereo not drawn)"
  pKi: 8.57

For the next question, use this compound.
Give me measured pKi, please, for this compound: COc1cc(NCc2cccc3nc(N)nc(N)c23)cc(OC)c1OC
6.51

Recorded values, source ChEMBL document CHEMBL1128249.
